- Tested on: U2OS
- procedureText: Multiplex assay against U2OS
- Type: toxicity, cell-based
- particulars: human, 24 h, 10 µM, compound concentration 10 uM, replicate 1
propertyName: Population Pyknosed Nuclei (%)
The answer is to be given in %; state only the numeric part.

As a guide, the following entries are already answered.
molecule: O=C(CCCc1ccccc1)Nc1nc2ccccc2c(=O)s1
Population Pyknosed Nuclei (%): 9

molecule: CN(C)C(=O)Cn1cc(-c2ccc(-c3cncc4ccccc34)cc2)cn1
Population Pyknosed Nuclei (%): 9

Please list Population Pyknosed Nuclei (%) recorded for the molecule CC(C)c1noc(N2CCC(COc3ccc(-c4ccc(S(C)(=O)=O)cc4)nc3)CC2)n1 [GSK-1292263]
9

###

# Population Tubulin-Different-Phenotype (%) listing for each entry below
- System: HEK-293T
- procedureText: Multiplex assay against HEK293T
- Format: toxicity, cell-based
- particulars: human, 12 h, 10 µM, compound concentration 10 uM, replicate 1
The number alone won't do; follow it with the unit.

compound: CC[C@@H](C)Nc1nc(C)nc2c(-c3ccc(OC)nc3C)c(C)nn12
measurement: 54%
--
compound: CCCCC(=O)N(Cc1ccc(-c2ccccc2-c2nnn[nH]2)cc1)[C@H](C(=O)O)C(C)C
measurement: 19%

The record that follows has no Population Tubulin-Different-Phenotype (%) shown yet.
Please list Population Tubulin-Different-Phenotype (%) recorded for the compound CCCCCC(O)/C=C/[C@H]1C(=O)CC(O)C1C/C=C\CCCC(=O)O (stereo partly drawn)
31%

###

- Test system: U2OS
- procedureText: Multiplex assay against U2OS
- Assay type: toxicity, cell-based
- particulars: human, 12 h, 10 µM, compound concentration 10 uM, replicate 2
# Population Tubulin-Different-Phenotype (%) listing for each entry below
The answer is to be given in %; state only the numeric part.

As a guide, the following entries are already answered.
compound: CC(=O)Nc1cccc2c1c(Sc1ccc(Cl)cc1)c(C)n2CC(=O)O
measurement: 5
//
compound: Cc1onc(-c2ccccc2Cl)c1C(=O)N(C)c1ccc(Cl)cc1
measurement: 4
//
compound: COC[C@@H](c1ccc(C(F)(F)F)cc1)N1CCN(C2(C)CCN(C(=O)c3c(C)ncnc3C)CC2)C[C@@H]1C.O=C(O)/C=C\C(=O)O [VICRIVIROC MALEATE]
measurement: 6
//
compound: Cc1sc2c(c1C)C(c1ccc(Cl)cc1)=N[C@@H](CC(=O)NCCCCCCCCNC(=O)COc1cccc3c1C(=O)N(C1CCC(=O)NC1=O)C3=O)c1nnc(C)n1-2 (stereo partly specified)
measurement: 12
//
compound: Cc1cnc(-c2cc(N3CCN(C(=O)CCS(C)(=O)=O)CC3)ncc2Cl)c(C)c1
measurement: 15
//
compound: Cl.N=C(N)NC(=O)Cc1c(Cl)cccc1Cl [GUANFACINE HYDROCHLORIDE]
measurement: 10
//
compound: CCCCC(=O)N(Cc1ccc(-c2ccccc2-c2nnn[nH]2)cc1)[C@H](C(=O)O)C(C)C
measurement: 0
//
compound: NCCc1cn(S(=O)(=O)c2c(Cl)nc3sccn23)c2ccccc12.O=C(O)C(=O)O
measurement: 50
//
compound: O=C1[C@H](Cc2ccc(O)cc2)N2C(=O)CCN(C(=O)NCc3ccccc3)[C@H]2CN1Cc1cccc2ccccc12
measurement: 43
//
compound: O=C(NCCN1CCC(n2c(=O)[nH]c3cc(Cl)ccc32)CC1)c1ccc(F)cc1 [HALOPEMIDE]
measurement: 27

The record that follows has no Population Tubulin-Different-Phenotype (%) shown yet.
Report measured Population Tubulin-Different-Phenotype (%) on U2OS; entry: CCCCC1=NC2(CCCC2)C(=O)N1Cc1ccc(-c2ccccc2-c2nnn[nH]2)cc1
8

###

- Tested on: Fibroblast
- procedureText: Multiplex assay against human fibroblast
- Type: toxicity, cell-based
- particulars: 48 h, 10 µM, compound concentration 10 uM, replicate 1
One threshold, 200, splits the recorded Total Cell Count values: lower ones are class 1, equal or higher ones are class 0.

Before answering, review these 5 worked examples.
compound: CC[C@@H](C)Nc1nc(C)nc2c(-c3ccc(OC)nc3C)c(C)nn12
categoryLabel: class 1

compound: Cc1onc(-c2ccccc2Cl)c1C(=O)N(C)c1ccc(Cl)cc1
categoryLabel: class 1

compound: Cc1sc2c(c1C)C(c1ccc(Cl)cc1)=N[C@@H](CC(=O)NCCCCCCCCNC(=O)COc1cccc3c1C(=O)N(C1CCC(=O)NC1=O)C3=O)c1nnc(C)n1-2 (some centres not stated)
categoryLabel: class 1

compound: CN1CCN(c2cc(-c3ccccc3)nc(N)n2)CC1
categoryLabel: class 0

compound: CCCCCC(O)/C=C/[C@H]1C(=O)CC(O)C1C/C=C\CCCC(=O)O (some centres not stated)
categoryLabel: class 1

Item Cc1noc(-c2ccc(-c3ccc(CC(=O)O)cc3)cc2)c1NC(=O)O[C@H](C)c1ccccc1Cl : Total Cell Count beneath 200, strictly?
class 1

Item Cc1cccc(NC(=O)CN2CCC(c3ccccn3)CC2)c1.Cl.Cl : Total Cell Count beneath 200, strictly?
class 0

###

- Test system: HEK-293T
- procedureText: Multiplex assay against HEK293T
- Type: toxicity, cell-based
- particulars: human, 24 h, 1 µM, compound concentration 1 uM, replicate 2
One threshold, 80%, splits the recorded Population Healthy Nuclei (%) values: lower ones are y, equal or higher ones are n.

Item COc1cccc2c1c(NS(=O)(=O)c1ccc(Cl)s1)nn2Cc1cccc(CNC(=O)C(C)(C)O)c1 : Population Healthy Nuclei (%) beneath 80%, strictly?
n

Item Cl.NCCc1ccc(O)c(O)c1 [DOPAMINE HYDROCHLORIDE] : Population Healthy Nuclei (%) beneath 80%, strictly?
n

Item Cc1sc2c(c1C)C(c1ccc(Cl)cc1)=N[C@@H](CC(=O)NCCCCCCCCNC(=O)COc1cccc3c1C(=O)N(C1CCC(=O)NC1=O)C3=O)c1nnc(C)n1-2 (stereo partly specified) : Population Healthy Nuclei (%) beneath 80%, strictly?
y

Item Cl.N=C(N)NC(=O)Cc1c(Cl)cccc1Cl [GUANFACINE HYDROCHLORIDE] : Population Healthy Nuclei (%) beneath 80%, strictly?
n

###

# Population Tubulin-Different-Phenotype (%) listing for each entry below
- System: Fibroblast
- procedureText: Multiplex assay against human fibroblast
- Format: toxicity, cell-based
- particulars: 12 h, 10 µM, compound concentration 10 uM, replicate 2
The answer is to be given in %; state only the numeric part.

molecule: CCCCC1=NC2(CCCC2)C(=O)N1Cc1ccc(-c2ccccc2-c2nnn[nH]2)cc1 [IRBESARTAN]
measurement: 53
//
molecule: CC(C)COc1ccc(CNC(=O)N(Cc2ccc(F)cc2)C2CCN(C)CC2)cc1 [PIMAVANSERIN]
measurement: 81
//
molecule: COc1ccccc1N1CCN(C[C@@H](C(=O)NC(C)(C)C)c2ccccc2)CC1.Cl.Cl
measurement: 70

Please list Population Tubulin-Different-Phenotype (%) recorded for the molecule Cc1sc2c(c1C)C(c1ccc(Cl)cc1)=N[C@@H](CC(=O)NCCCCCCCCNC(=O)COc1cccc3c1C(=O)N(C1CCC(=O)NC1=O)C3=O)c1nnc(C)n1-2 (stereo not given in full)
69

Please list Population Tubulin-Different-Phenotype (%) recorded for the molecule CN1CCN(c2cc(-c3ccccc3)nc(N)n2)CC1
67

###

- Tested on: Fibroblast
- procedureText: Multiplex assay against human fibroblast
- Type: toxicity, cell-based
- particulars: 24 h, 1 µM, compound concentration 1 uM, replicate 1
# Population Healthy Nuclei (%) listing for each entry below
The answer is to be given in %; state only the numeric part.

As a guide, the following entries are already answered.
compound: O=C1[C@H](Cc2ccc(O)cc2)N2C(=O)CCN(C(=O)NCc3ccccc3)[C@H]2CN1Cc1cccc2ccccc12
measurement: 62

compound: N#Cc1cc(F)cc(-c2nc(-c3ccc(F)cn3)no2)c1
measurement: 68

compound: Cl.N=C(N)NC(=O)Cc1c(Cl)cccc1Cl [GUANFACINE HYDROCHLORIDE]
measurement: 62

compound: Cc1onc(-c2ccccc2Cl)c1C(=O)N(C)c1ccc(Cl)cc1
measurement: 65

compound: COc1cccc2c1c(NS(=O)(=O)c1ccc(Cl)s1)nn2Cc1cccc(CNC(=O)C(C)(C)O)c1
measurement: 68

compound: COC[C@@H](c1ccc(C(F)(F)F)cc1)N1CCN(C2(C)CCN(C(=O)c3c(C)ncnc3C)CC2)C[C@@H]1C.O=C(O)/C=C\C(=O)O [VICRIVIROC MALEATE]
measurement: 57

compound: Cc1sc2c(c1C)C(c1ccc(Cl)cc1)=N[C@@H](CC(=O)NCCCCCCCCNC(=O)COc1cccc3c1C(=O)N(C1CCC(=O)NC1=O)C3=O)c1nnc(C)n1-2 (stereo partly drawn)
measurement: 53

The record that follows has no Population Healthy Nuclei (%) shown yet.
Report measured Population Healthy Nuclei (%) on Fibroblast; entry: CCCCC(=O)N(Cc1ccc(-c2ccccc2-c2nnn[nH]2)cc1)[C@H](C(=O)O)C(C)C
70
